system under test: mouse BLyS protein (mouse, UniProt Q9WU72 69-309)
Sequence (Q9WU72 69-309): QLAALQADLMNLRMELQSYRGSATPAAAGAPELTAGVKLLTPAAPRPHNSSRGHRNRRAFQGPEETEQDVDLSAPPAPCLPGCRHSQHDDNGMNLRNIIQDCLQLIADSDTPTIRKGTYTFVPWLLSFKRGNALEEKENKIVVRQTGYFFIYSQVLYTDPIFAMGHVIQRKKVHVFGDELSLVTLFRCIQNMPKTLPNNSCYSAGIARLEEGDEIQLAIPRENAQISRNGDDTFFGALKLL
procedure summary: cell-based or functional assay
quantity kind: mouse B lymphocyte proliferation (OD450 nm), antibody 100 nM
Include the unit right after the number.

Field: example entries. Status: answers known.
>>> readout_value("L9G7 (antibody, V domains shown, From a human naive scFv phage library; also called human BLyS antibody L9G7) VH: QIQLVQSGAEVKKPGASVKVSCKASGYTFTSYGISWVRQAPGQGLEWMGWISAYNGNTNYAQKLQGRVTMTTDTSTSTAYMELRSLRSDDTAVYYCARTYYDILTGYYYYGMDVWGQGTTVTVSS VL: EIVLTQSPGTLSLSPGERATLSCRTSQSVDTYLAWYQQKPGQAPRLLIYDASNRATGIPARFSGSGSGTDFTLTISSLEPEDFAVYYCQQRSNWPLTFGGGTKVEIK")
"221 OD450 nm"
>>> readout_value("111D10D6G3 (antibody, V domains shown, Mouse hybridoma monoclonal antibody purified on Protein G) VH: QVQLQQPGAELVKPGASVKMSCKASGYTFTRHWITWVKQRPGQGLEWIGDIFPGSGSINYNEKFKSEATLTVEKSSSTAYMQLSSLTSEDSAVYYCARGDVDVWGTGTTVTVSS VL: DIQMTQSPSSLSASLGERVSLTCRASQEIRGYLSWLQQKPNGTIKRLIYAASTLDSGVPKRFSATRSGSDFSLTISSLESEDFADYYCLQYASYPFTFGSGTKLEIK")
"2360 OD450 nm"

Next, consider the following binder.
Any idea what mouse B lymphocyte proliferation (OD450 nm), antibody 100 nM was measured for 8E7D9C7F5 (antibody, V domains shown, Mouse hybridoma monoclonal antibody purified on Protein G) VH: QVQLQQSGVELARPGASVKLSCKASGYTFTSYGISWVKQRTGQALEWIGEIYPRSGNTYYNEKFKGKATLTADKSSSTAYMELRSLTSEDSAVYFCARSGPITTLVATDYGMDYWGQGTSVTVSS VL: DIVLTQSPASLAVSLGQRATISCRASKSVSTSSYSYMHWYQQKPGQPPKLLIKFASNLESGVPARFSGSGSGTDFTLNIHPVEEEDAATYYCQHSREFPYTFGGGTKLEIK ?
2360 OD450 nm
